settings: 363.15 K; 101.33 kPa; Liquid; Vibrating tube method
Recorded Endpoint: mass density (kg/m3)
One number for each entry, in kg/m3.

compound="CCCCCCCC[n+]1ccn(C)c1.N[C@@H](CO)C(=O)[O-] [1-methyl-3-octyl-1H-imidazol-3-ium L-serinate]" observed_measurement=1030.5
compound="CCCCCCCC[n+]1ccn(C)c1.C[C@H](N)C(=O)[O-] [1-methyl-3-octylimidazolium L-alaninate]" observed_measurement=962.6
compound="CCCCCCCC[n+]1ccn(C)c1.NC(=O)C[C@H](N)C(=O)[O-] [1-methyl-3-octylimidazolium L-asparaginate]" observed_measurement=1034.4
compound="CCCCCCCCn1cc[n+](C)c1.O=C([O-])[C@@H]1CCCN1 [1-methyl-3-octyl-1H-imidazol-3-ium L-prolinate]" observed_measurement=1020.1

Could you now look at the following compound, please?
Problem: Dear colleague, I am looking for the recorded mass density of the following compound: CCCCCCCCn1cc[n+](C)c1.NCC(=O)[O-] [1-methyl-3-octylimidazolium glycinate]
Solution: 998.6
